Just for reference, patent US20070004634A1 is where these values come from.

Quick list: IR/IGF-1R ratio comparison per entry.
- SYSTEM TESTED: T1, soluble human insulin receptor-immunoglobulin heavy chain chimera (sIR-Fc; Bass et al., 1996) (human, UniProt P06213-2 28-944)
- T1 construct: extracellular domain; also called soluble IR (Bass construct); Eu3+-sIR-Fc; not shown: immunoglobulin heavy chain constant domains per Bass et al., 1996
- T1 sequence (P06213 other isoform, or with tags, fused parts or gaps mutant): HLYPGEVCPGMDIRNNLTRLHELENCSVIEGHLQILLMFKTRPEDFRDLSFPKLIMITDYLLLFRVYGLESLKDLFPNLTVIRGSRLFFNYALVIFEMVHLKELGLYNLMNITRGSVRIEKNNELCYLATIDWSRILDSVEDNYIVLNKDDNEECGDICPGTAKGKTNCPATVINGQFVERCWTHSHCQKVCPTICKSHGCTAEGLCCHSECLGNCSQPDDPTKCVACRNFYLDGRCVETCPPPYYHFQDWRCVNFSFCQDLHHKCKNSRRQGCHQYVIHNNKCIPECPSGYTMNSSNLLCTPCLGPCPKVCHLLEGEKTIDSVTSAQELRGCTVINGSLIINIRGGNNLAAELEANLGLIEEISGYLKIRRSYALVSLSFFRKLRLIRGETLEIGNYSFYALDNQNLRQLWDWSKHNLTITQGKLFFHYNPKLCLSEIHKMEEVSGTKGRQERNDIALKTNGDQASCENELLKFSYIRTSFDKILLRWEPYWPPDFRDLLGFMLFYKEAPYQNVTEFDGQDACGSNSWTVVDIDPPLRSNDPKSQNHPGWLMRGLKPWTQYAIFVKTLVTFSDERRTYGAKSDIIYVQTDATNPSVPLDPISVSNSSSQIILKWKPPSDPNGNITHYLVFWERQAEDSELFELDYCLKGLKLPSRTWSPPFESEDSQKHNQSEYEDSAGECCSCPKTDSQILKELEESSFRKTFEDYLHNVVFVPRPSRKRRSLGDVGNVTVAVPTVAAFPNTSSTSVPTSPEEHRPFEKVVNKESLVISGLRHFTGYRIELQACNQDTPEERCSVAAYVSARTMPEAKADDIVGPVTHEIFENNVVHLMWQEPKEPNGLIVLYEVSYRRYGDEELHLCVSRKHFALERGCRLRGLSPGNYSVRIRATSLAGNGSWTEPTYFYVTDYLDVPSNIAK
- ASSAY REMARKS: phage ELISA
Could you respond with only the numeric value?

Per the records, this binder ( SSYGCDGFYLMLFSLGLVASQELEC [20C-3-A1-IGFR] ) has IR/IGF-1R ratio comparison equal to 0.1
